// provenance: patent US20150291565A1

Here the recorded MIC is given for each entry.
Tested on: E. faecium ATCC 700221 (VRE)
Assay: Broth dilution MIC, E. faecium ATCC 700221
Format: cell-based
Conditions: Enterococcus faecium, Table 3; starting at 4 μg/ml; read-out: MIC E. faecium ATCC 700221
measured.attribute: MIC

{"columns": ["compound", "measured.attribute", "assay.value"],
 "data": [
  ["c1ccc(-c2ccc(Nc3ccc(-c4cc5ccc(C6=NCCN6)cc5[nH]4)cc3)cc2)nc1 [SKI-12]", "MIC", "0.12 µg/mL"],
  ["c1cncc(Nc2ccc(-c3cc4ccc(C5=NCCN5)cc4[nH]3)cc2)c1 [SKI-4]", "MIC", "0.25 µg/mL"],
  ["c1cc(C2=NCCN2)ccc1Nc1ccc(-c2cc3ccc(C4=NCCN4)cc3[nH]2)cc1 [SKI-1]", "MIC", "0.06 µg/mL"],
  ["c1cnc(-c2ccc(Nc3ccc(-c4cc5ccc(C6=NCCN6)cc5[nH]4)cc3)cc2)cn1 [SKI-10]", "MIC", "0.12 µg/mL"]
]}

* * *

Tested on: E. faecalis ATCC 29212 (VRE)
Test: Broth dilution MIC, E. faecalis ATCC 29212
Assay type: cell-based
Details: Enterococcus faecalis; Table 1; range 64 down to 0.12 μg/ml; read-out: MIC E. faecalis ATCC 29212
Mark T for MIC under 8 µg/mL, F if at or over.

{"columns": ["smiles.structure", "category"],
 "data": [
  ["c1cc(C2=NCCN2)ccc1Nc1ccc(-c2cc3ccc(C4=NCCN4)cc3[nH]2)cc1", "T"],
  ["c1cc(-c2cc3ccc(C4=NCCN4)cc3[nH]2)ccc1Nc1ccc(N2CCOCC2)cc1", "T"],
  ["c1cnc(-c2ccc(Nc3ccc(-c4cc5ccc(C6=NCCN6)cc5[nH]4)cc3)cc2)cn1", "T"],
  ["CN1CCC(Nc2ccc(-c3cc4ccc(C5=NCCN5)cc4[nH]3)cc2)CC1", "F"],
  ["c1cc(-c2cc3ccc(C4=NCCN4)cc3[nH]2)ccc1NC1CCNCC1", "F"],
  ["Nc1ccc(-c2ccc3cc(-c4ccc(Nc5ccc(C6=NCCN6)cc5)cc4)[nH]c3c2)cc1", "F"],
  ["c1ccc(Nc2ccc(-c3cc4ccc(C5=NCCN5)cc4[nH]3)cc2)cc1", "T"],
  ["c1cncc(Nc2ccc(-c3cc4ccc(C5=NCCN5)cc4[nH]3)cc2)c1", "T"]
]}

* * *

System: E. faecium CT-26
Assay: Broth dilution MIC, E. faecium CT-26
Type: cell-based
Conditions: Enterococcus faecium, CT26, Table 2; broth dilution MIC in ug/ml; read-out: MIC E faecium CT-25
Mark condition met for MIC under 4 µg/mL, condition not met if at or over.

{"columns": ["molecule", "tested.target", "category"],
 "data": [
  ["c1cncc(Nc2ccc(-c3cc4ccc(C5=NCCN5)cc4[nH]3)cc2)c1 [SKI-4]", "E. faecium CT-26", "condition met"],
  ["c1ccc(Nc2ccc(-c3cc4ccc(C5=NCCN5)cc4[nH]3)cc2)cc1 [SKI-2]", "E. faecium CT-26", "condition met"],
  ["Nc1ccc(-c2ccc3cc(-c4ccc(Nc5ccc(C6=NCCN6)cc5)cc4)[nH]c3c2)cc1 [SKI-20]", "E. faecium CT-26", "condition not met"],
  ["c1cnc(-c2ccc(Nc3ccc(-c4cc5ccc(C6=NCCN6)cc5[nH]4)cc3)cc2)cn1 [SKI-10]", "E. faecium CT-26", "condition met"],
  ["c1cc(-c2cc3ccc(C4=NCCN4)cc3[nH]2)ccc1NC1CCNCC1 [SKI-6]", "E. faecium CT-26", "condition not met"],
  ["c1ccc(-c2ccc(Nc3ccc(-c4cc5ccc(C6=NCCN6)cc5[nH]4)cc3)cc2)nc1 [SKI-12]", "E. faecium CT-26", "condition met"],
  ["CN1CCC(Nc2ccc(-c3cc4ccc(C5=NCCN5)cc4[nH]3)cc2)CC1 [SKI-7]", "E. faecium CT-26", "condition not met"],
  ["c1cc(C2=NCCN2)ccc1Nc1ccc(-c2cc3ccc(C4=NCCN4)cc3[nH]2)cc1 [SKI-1]", "E. faecium CT-26", "condition met"],
  ["c1cc(-c2cc3ccc(C4=NCCN4)cc3[nH]2)ccc1Nc1ccc(N2CCOCC2)cc1 [SKI-11]", "E. faecium CT-26", "condition met"]
]}

* * *

System: S. aureus BAA-39 (MDR)
Test: Broth dilution MIC, S. aureus BAA-39
Type: cell-based
Details: Table 3; starting at 4 μg/ml
Here the recorded MIC S. aureus BAA-39 is given for each entry.
measured.attribute: MIC S. aureus BAA-39 (µg/mL)

{"columns": ["molecule", "assay.value"],
 "data": [
  ["c1cncc(Nc2ccc(-c3cc4ccc(C5=NCCN5)cc4[nH]3)cc2)c1", 1],
  ["C[C@@H](O)[C@H]1C(=O)N2C(C(=O)O)=C(SCCN=CN)C[C@H]12 [IMP, reference compound]", 1],
  ["c1cnc(-c2ccc(Nc3ccc(-c4cc5ccc(C6=NCCN6)cc5[nH]4)cc3)cc2)cn1", 0.5],
  ["c1ccc(-c2ccc(Nc3ccc(-c4cc5ccc(C6=NCCN6)cc5[nH]4)cc3)cc2)nc1", 1],
  ["c1cc(C2=NCCN2)ccc1Nc1ccc(-c2cc3ccc(C4=NCCN4)cc3[nH]2)cc1", 0.25]
]}

* * *

Test system: S. aureus ATCC 29213 (MSSA)
Experiment: Broth dilution MIC, S. aureus ATCC 29213
Assay type: cell-based
Conditions: Staphylococcus aureus; Table 1; range 64 down to 0.12 μg/ml; read-out: MIC S. aureus ATCC 29213

{"columns": ["smiles.structure", "measurement.unit", "value.modifier", "MIC"],
 "data": [
  ["Nc1ccc(-c2ccc3cc(-c4ccc(Nc5ccc(C6=NCCN6)cc5)cc4)[nH]c3c2)cc1", "µg/mL", ">", 64],
  ["c1ccc(-c2ccc(Nc3ccc(-c4cc5ccc(C6=NCCN6)cc5[nH]4)cc3)cc2)nc1", "µg/mL", "=", 1],
  ["c1cc(-c2cc3ccc(C4=NCCN4)cc3[nH]2)ccc1NC1CCNCC1", "µg/mL", "=", 8],
  ["c1cnc(-c2ccc(Nc3ccc(-c4cc5ccc(C6=NCCN6)cc5[nH]4)cc3)cc2)cn1", "µg/mL", "=", 0.5],
  ["c1cc(-c2cc3ccc(C4=NCCN4)cc3[nH]2)ccc1Nc1ccc(N2CCOCC2)cc1", "µg/mL", "=", 8]
]}

* * *

Test system: S. aureus ATCC 29213 (MSSA)
Assay: Broth dilution MIC, S. aureus ATCC 29213
Type: cell-based
Conditions: Staphylococcus aureus; Table 2; broth dilution MIC in ug/ml; read-out: MIC S aureus ATCC 29213 MSSA
measured.attribute: log10(MIC) (log10 of the value in mg/L)

{"columns": ["molecule", "log10(MIC)"],
 "data": [
  ["Nc1ccc(-c2ccc3cc(-c4ccc(Nc5ccc(C6=NCCN6)cc5)cc4)[nH]c3c2)cc1 [SKI-20]", 1.81],
  ["c1cc(-c2cc3ccc(C4=NCCN4)cc3[nH]2)ccc1NC1CCNCC1 [SKI-6]", 0.90],
  ["c1cnc(-c2ccc(Nc3ccc(-c4cc5ccc(C6=NCCN6)cc5[nH]4)cc3)cc2)cn1 [SKI-10]", -0.30],
  ["c1cncc(Nc2ccc(-c3cc4ccc(C5=NCCN5)cc4[nH]3)cc2)c1 [SKI-4]", 0.00],
  ["c1cc(C2=NCCN2)ccc1Nc1ccc(-c2cc3ccc(C4=NCCN4)cc3[nH]2)cc1 [SKI-1]", -0.60],
  ["c1cc(-c2cc3ccc(C4=NCCN4)cc3[nH]2)ccc1Nc1ccc(N2CCOCC2)cc1 [SKI-11]", 0.90],
  ["c1ccc(-c2ccc(Nc3ccc(-c4cc5ccc(C6=NCCN6)cc5[nH]4)cc3)cc2)nc1 [SKI-12]", 0.00],
  ["c1ccc(Nc2ccc(-c3cc4ccc(C5=NCCN5)cc4[nH]3)cc2)cc1 [SKI-2]", 0.90],
  ["Nc1ccc(Nc2ccc(-c3cc4ccc(C5=NCCN5)cc4[nH]3)cc2)cc1 [SKI-8]", 1.20],
  ["CN1CCC(Nc2ccc(-c3cc4ccc(C5=NCCN5)cc4[nH]3)cc2)CC1 [SKI-7]", 0.30]
]}

* * *

Tested on: E. coli ATCC 25922
Assay: Broth dilution MIC, E. coli ATCC 25922
Type: cell-based
Details: Escherichia coli, ATCC25922, Table 1; range 64 down to 0.12 μg/ml; read-out: MIC E. coli ATCC 25922

{"columns": ["smiles.structure", "measurement.unit", "value.modifier", "MIC"],
 "data": [
  ["c1cc(-c2cc3ccc(C4=NCCN4)cc3[nH]2)ccc1Nc1ccc(N2CCOCC2)cc1", "µg/mL", "=", 16],
  ["c1cncc(Nc2ccc(-c3cc4ccc(C5=NCCN5)cc4[nH]3)cc2)c1", "µg/mL", "=", 1],
  ["c1ccc(Nc2ccc(-c3cc4ccc(C5=NCCN5)cc4[nH]3)cc2)cc1", "µg/mL", "=", 16],
  ["c1ccc(-c2ccc(Nc3ccc(-c4cc5ccc(C6=NCCN6)cc5[nH]4)cc3)cc2)nc1", "µg/mL", "=", 4],
  ["c1cc(C2=NCCN2)ccc1Nc1ccc(-c2cc3ccc(C4=NCCN4)cc3[nH]2)cc1", "µg/mL", "=", 1],
  ["c1cc(-c2cc3ccc(C4=NCCN4)cc3[nH]2)ccc1NC1CCNCC1", "µg/mL", "=", 32],
  ["Nc1ccc(-c2ccc3cc(-c4ccc(Nc5ccc(C6=NCCN6)cc5)cc4)[nH]c3c2)cc1", "µg/mL", ">", 64],
  ["c1cnc(-c2ccc(Nc3ccc(-c4cc5ccc(C6=NCCN6)cc5[nH]4)cc3)cc2)cn1", "µg/mL", "=", 2],
  ["CN1CCC(Nc2ccc(-c3cc4ccc(C5=NCCN5)cc4[nH]3)cc2)CC1", "µg/mL", "=", 2],
  ["Nc1ccc(Nc2ccc(-c3cc4ccc(C5=NCCN5)cc4[nH]3)cc2)cc1", "µg/mL", "=", 32]
]}
